target: Short transient receptor potential channel 4 (Mus musculus) (UniProt Q9QUQ5); test: calcium flux activators in TRPC4/5HT1a cells, counter-screen for TRPC4 activator project, cell-based, second counter screen, HEK293 TRPC4/5HT1a, Fluo-4 (AID 434977); details: Fluo-4 calcium flux, at 10 µM; stronger effect = higher value;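 for activation: plate controls were assay buffer for no effect and maximal serotonin response for full effect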
Sequence (Q9QUQ5 whole entry, looked up): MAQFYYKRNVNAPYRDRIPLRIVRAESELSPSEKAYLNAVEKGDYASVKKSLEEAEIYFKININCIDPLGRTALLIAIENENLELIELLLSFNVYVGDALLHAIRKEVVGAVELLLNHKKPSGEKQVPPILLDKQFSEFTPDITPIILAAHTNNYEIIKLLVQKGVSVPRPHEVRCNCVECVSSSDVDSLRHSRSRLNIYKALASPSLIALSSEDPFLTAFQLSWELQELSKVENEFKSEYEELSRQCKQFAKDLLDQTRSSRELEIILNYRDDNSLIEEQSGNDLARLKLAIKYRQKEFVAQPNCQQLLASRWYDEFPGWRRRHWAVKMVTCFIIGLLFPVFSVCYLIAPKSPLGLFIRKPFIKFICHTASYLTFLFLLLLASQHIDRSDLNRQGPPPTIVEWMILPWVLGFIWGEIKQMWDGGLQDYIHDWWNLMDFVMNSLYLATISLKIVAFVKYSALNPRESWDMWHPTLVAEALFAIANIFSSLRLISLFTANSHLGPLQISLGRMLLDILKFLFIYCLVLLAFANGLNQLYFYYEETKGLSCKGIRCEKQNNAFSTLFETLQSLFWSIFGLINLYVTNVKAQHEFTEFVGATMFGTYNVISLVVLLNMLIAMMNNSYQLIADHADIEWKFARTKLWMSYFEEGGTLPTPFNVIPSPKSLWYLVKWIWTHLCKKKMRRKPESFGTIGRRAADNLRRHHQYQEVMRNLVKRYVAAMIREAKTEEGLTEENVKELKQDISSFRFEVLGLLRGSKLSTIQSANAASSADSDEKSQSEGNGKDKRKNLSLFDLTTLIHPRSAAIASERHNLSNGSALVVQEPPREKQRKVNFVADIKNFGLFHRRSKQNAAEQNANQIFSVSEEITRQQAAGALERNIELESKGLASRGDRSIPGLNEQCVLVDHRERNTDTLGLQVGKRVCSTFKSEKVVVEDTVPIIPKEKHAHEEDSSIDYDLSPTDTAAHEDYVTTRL
Calls of active or inactive are those of the source.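 Rule for the calls: active = calcium signal rise above buffer-control mean plus 5 SD in both duplicates, and also a hit in the primary screen; inactive = the rest.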
readout kind: activation

Look over these answered cases.
Cc1ccc(C(CNS(=O)(=O)c2ccc([N+](=O)[O-])cc2)N2CCN(C)CC2)cc1 (stereo not given); inactive
O=[N+]([O-])c1ccc(CN2CCN(c3nc4ccccc4s3)CC2)cc1; inactive
CCN(CC)CCN(Cc1cc2ccc(C)cc2[nH]c1=O)C(=S)Nc1ccccc1C(=O)OC; inactive
CN1CCN(c2ccc(NC(=O)c3ccc(-c4cccc([N+](=O)[O-])c4)o3)cc2)CC1; inactive
CCCCN(CC)CCNC(=O)c1cc2c(-c3ccc(Cl)cc3)nn(C)c2s1; 20.5% (active)

Query: Short transient receptor potential channel 4 (Mus musculus) (UniProt Q9QUQ5) / activation / `Cc1ccc(NC(=O)c2cc(N3C(=O)C=CC3=O)ccc2N2CCOCC2)cc1Cl` : value?
Response: inactive

Query: Give activation (Short transient receptor potential channel 4 (Mus musculus) (UniProt Q9QUQ5)) of the following compound: `CC(C)Oc1ccc(CCC(=O)NNC(=S)NCc2ccccc2)cc1`
Response: inactive

Query: Return activation measured with Short transient receptor potential channel 4 (Mus musculus) (UniProt Q9QUQ5) given this compound: COC(=O)C(CC(=O)Nc1cc(C)ccc1C)Nc1ccccc1OC (stereo not given)
Response: inactive

Query: Query activation on Short transient receptor potential channel 4 (Mus musculus) (UniProt Q9QUQ5) for `Cc1ccc(Nc2cc(C)nc3c(C)cccc23)cc1`
Response: inactive

---

target: Short transient receptor potential channel 4 (Mus musculus) (UniProt Q9QUQ5); assay: calcium flux activators in TRPC4/5HT1a cells, counter-screen for TRPC4 activator project, cell-based, second counter screen, HEK293 TRPC4/5HT1a, Fluo-4 (AID 434977); details: Fluo-4 calcium flux, at 10 µM
Activity calls are given as the source filed them.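 Rule for the calls: active = calcium signal rise above buffer-control mean plus 5 SD in both duplicates, and also a hit in the primary screen; inactive = the rest.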
Write down one outcome, taken from 1.0 = active, 0.0 = inactive

Previously resolved entries follow.
CC(=O)c1ccc(N2CCN(C(=O)CCS(=O)(=O)c3ccc4c(c3)NC(=O)CS4)CC2)cc1; 0.0
CCn1c(CN2CCN(Cc3ccc(C)cc3)C(CCO)C2)nc2ccccc21 (stereo not drawn); 1.0

Query: Recorded call for `CCOc1ccc(CN2CCN(C(=O)c3ccccc3)CC2)cc1` ?
Response: 0.0

Query: Hi, do you know how `Cc1csc2c(N3CCN(C(=O)Nc4ccccc4)CC3)ncnc12` came out in this test?
Response: 1.0

Query: Field: outcome | Entry: `COc1ccccc1CNCc1ccc(OC)c2ccccc12`
Response: 0.0

---

biological target: Short transient receptor potential channel 4 (Mus musculus); assay: calcium flux activators in TRPC4/5HT1a cells, counter-screen for TRPC4 activator project, cell-based, second counter screen, HEK293 TRPC4/5HT1a, Fluo-4 (AID 434977); settings: Fluo-4 calcium flux, at 10 µM
Active and inactive are the calls of the source.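 The calls were made as follows: active = calcium signal rise above buffer-control mean plus 5 SD in both duplicates, and also a hit in the primary screen; inactive = the rest.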
Pick from Yes for active, No for inactive when you respond.

CC(C)c1ccc(S(=O)(=O)/N=C2\C=C(NS(=O)(=O)c3ccccc3)C(=O)c3ccccc32)cc1; No
CCN(C(=O)c1cnc(NC(C)C)cc1C(F)(F)F)c1ccc(Cl)cc1Cl; No
CSc1nc(N2CCOCC2)c2c3c(sc2n1)CCCC3; No
Cc1ccc(C(C)(C)C)cc1S(=O)(=O)Nc1nc2ccccc2nc1Cl; No
COc1ccccc1N(C(=O)c1snc(C(N)=O)c1N)C(C(=O)NCc1ccccc1)c1ccc(O)cc1 (stereo not given); No

Query: Hello, I am checking results. What call was entered for `Nc1cc(N2CCCCC2)c([N+](=O)[O-])cc1Cl` ?
Response: No

Query: Assay outcome for `C/C(=N/Nc1ccnc2cc(Cl)ccc12)c1ccc(N)cc1` : what was it?
Response: No

Query: Hi team, can someone confirm the assay call for `COc1ccc(/C=C/C(=O)Oc2cc(O)cc(O)c2)cc1` ?
Response: No

Query: Could you kindly confirm the outcome this assay logged for `CCn1c(=O)c2cc(C(=O)N(C)c3cc(C)ccc3OC)sc2c2ccccc21` ?
Response: No

Query: Status in this test for O=C(Nc1ncc(Br)s1)C(Cc1ccccc1)n1cccc1 (stereo not given) ?
Response: No

---

molecular target: Short transient receptor potential channel 6 (Mus musculus); experiment: TRPC6 blockade by TRPC4 inhibitor hits – cell-based, HEK293, membrane potential dye, duplicate, selectivity assay for TRPC4 inhibitor project, confirmation (AID 434948); conditions: HEK293 TRPC6, membrane potential dye fluorescence, at 10 µM, stimulated with maximal-effect acetylcholine
Activity calls are given as the source filed them.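 Rule for the calls: active = active in primary screen and both duplicates, each dropping signal beyond three positive-control SD with fluorescence still positive; inactive = the rest.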
Result category, one only: active, inactive

Some solved entries appear below for comparison.
CCN1CCN(C(=O)c2cc(-c3ccc(Cl)s3)nc3ccccc23)CC1; inactive
CCCN(CCC)CCCNC(=O)c1cc2c(=O)n(C)c3ccccc3c2n1C; inactive
COC(=O)CC(NC(=S)NC(=O)c1ccccc1)c1ccc(Br)cc1 (stereo unspecified); inactive
O=c1c2ccccc2nc(COc2ccccc2)n1/N=C/c1cc([N+](=O)[O-])ccc1O; inactive

Query: // return assay outcome for `CCCN1C2=NCCN2c2cc(C)c(C)cc21`
Response: active

Query: Test call for this compound, please: Cc1c(N(C)S(=O)(=O)c2cc(C(=O)NCC3CCCO3)ccc2Cl)c(=O)n(-c2ccccc2)n1C (stereo unspecified)
Response: inactive

Query: Please state the recorded outcome for this compound: CCN(CC)c1ncnc2scc(C3COc4ccccc4O3)c12 (stereo unspecified)
Response: inactive

Query: Identify the outcome logged in this assay for the compound shown: `CCN(CC)CCNc1ccc(Cl)cc1[N+](=O)[O-]`
Response: inactive

Query: For this compound, state the assay outcome: `COc1ccc(CNCC(O)(c2ccccc2)c2ccccc2)cc1OC`
Response: inactive

Query: Recorded call for `Cc1c(CCOC(=O)CC23CC4CC(CC(C4)C2)C3)sc[n+]1Cc1ccccc1` ?
Response: active

Query: Called result for CCc1cc(C(c2cccc(OC)c2)N2CCOCC2)c(NC(=O)c2ccccc2)s1 (stereo unspecified)
Response: inactive

---

tested on: TRPC4 beta (transient receptor potential cation channel C4), mouse; experiment: potentiation of DAMGO EC20 TRPC4 response – cell-based, Fluo-4, HEK293 TRPC4beta/mu-opioid, confirmation (AID 2555); details: DAMGO EC20, Fluo-4 calcium flux, at 10 µM; stronger effect = higher value
The source made the active and inactive calls.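 The calls were made as follows: active = primary screen hit whose calcium fluorescence ratio, in both repeats, exceeds the weak agonist control mean by 3 SD; inactive = the rest.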
readout kind: potentiation

Here's what some known entries look like.
Cc1cc(OCCN2CCCC2)ccc1[N+](=O)[O-]; 11% (active)
COc1ccc(C(CNC(=O)/C=C/c2c(Cl)nc3ccccn23)N(C)C)cc1 (stereo not drawn); inactive
Cc1ccc2nc(C)c3c(c2c1)N(c1ccc(F)cc1)CC3; inactive
COc1ccccc1/C=C/CN1CCCC(CCC(=O)NCc2ccc(F)c(F)c2)C1 (stereo not drawn); inactive
Cc1ccc(OCC(=O)NNC(=S)NC(=O)c2ccc(Br)o2)c(C)c1; inactive
Clc1ccc2nc(CN3CCCc4ccccc43)cn2c1; 12% (active)
CC(=O)Nc1ccc(S(=O)(=O)N2CCN(CCCOc3cc(C)ccc3C)CC2)cc1; 24% (active)
CC(C)Cc1ccc(CN2CCCC(NC(=O)CCn3cnnn3)C2)cc1 (stereo not drawn); inactive

Query: Field: potentiation (TRPC4 beta (transient receptor potential cation channel C4), mouse). Entry: `Cc1cccc2cc(CN(Cc3nnnn3Cc3ccccc3)C3CCCC3)c(=O)[nH]c12`
Response: inactive

Query: Param readout = potentiation; param system = TRPC4 beta (transient receptor potential cation channel C4), mouse; param query = `CCCc1nc2oc3c(NCCN(C)C)ncnc3c2c2c1CCCC2` ; response: value
Response: inactive

Query: Kindly state the measured potentiation obtained for CCOc1ccc2nc(N3CCCC(C(=O)NCC4CCCO4)C3)sc2c1 (stereo not drawn) with TRPC4 beta (transient receptor potential cation channel C4), mouse.
Response: inactive

---

target: Short transient receptor potential channel 4 (Mus musculus) (UniProt Q9QUQ5); assay: blockers of DAMGO-evoked TRPC4 calcium flux – cell-based, second round, Fluo4, HEK293 TRPC4beta/mu-opioid, 1 µM, confirmation (AID 2637); details: at 1 µM
The source made the active and inactive calls.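 How the source made its calls: active means calcium signal ratio cut to more than 3 SD under the fully stimulated control mean yet still positive, in both repeats and the primary screen; inactive means the rest.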
Bench note: report the call from active, inactive

NC(=O)c1nsc(C(=O)N(Cc2ccc(F)cc2)C(C(=O)NCC2CCCO2)c2ccc(O)cc2)c1N (centres undefined); inactive

Query: Can you look up the reported call for `COc1cc(/C=C/C(=O)OCC(=O)Nc2c(C)n(C)n(-c3ccccc3)c2=O)ccc1OCC#N` for me?
Response: inactive

Query: Tell me the recorded outcome of this test for `Cc1c(CCOC(=O)c2ccccc2)sc[n+]1CC(=O)c1ccc(Br)cc1` .
Response: inactive

Query: State the result this test recorded for `Cc1ccc(S(=O)(=O)NC(=O)N2CCN(Cc3c(F)cccc3Cl)CC2)cc1` .
Response: inactive

Query: Test call, this molecule: `Clc1cccc(OCCN2CCNCC2)c1`
Response: inactive

Query: In this assay, the call recorded for `c1ccc(-c2nc(NCc3ccco3)c3ccccc3n2)nc1` was what?
Response: active

Query: In this assay, the call recorded for `Cn1c(/N=C/c2ccccc2[N+](=O)[O-])nc2ccccc21` was what?
Response: inactive

Query: In this assay, the call recorded for `c1ccc(-c2ccccc2OCCOCCN2CCCCC2)cc1` was what?
Response: active

Query: Each molecule tested received a call. Report the one for CC12CN3CC(C)(CN(C1)C3c1ccc(Cl)cc1Cl)C2O (centres undefined) .
Response: active

Query: // param item: `Cc1cccc(Cn2c(N3CCN(c4ccccc4)CC3)nc3c2c(=O)n(C)c(=O)n3C)c1` ; yields the recorded call
Response: inactive

Query: Tell me the assay call for `Cc1ccc(CSc2nnc(-c3cccc(S(=O)(=O)N4CCOCC4)c3)n2C2CCCC2)cc1` please.
Response: inactive

Query: Test call for this molecule, please: `Brc1ccc(CN2C3=NCCCN3c3ccccc32)cc1`
Response: active

Query: Hello, I am checking results. What call was entered for `Cc1ccsc1C(=O)OCC(=O)NCCNC(=O)COC(=O)c1sccc1C` ?
Response: inactive

Query: # lookup: test call for `Clc1cccc(C[n+]2cc(-c3ccccc3)n3c2CCC3)c1`
Response: active

Query: Which outcome was assigned to COc1ccccc1CC(Cc1nc2ccccc2[nH]1)c1nc2ccccc2[nH]1 (centres undefined) in this test?
Response: active

Query: Hi, do you know how Cc1ccc(C(=O)C2=C(O)C(=O)N(Cc3cccnc3)C2c2ccc(Cl)c(Cl)c2)o1 (centres undefined) came out in this test?
Response: inactive

Query: What did this assay record as the result for CCOC(=O)C1=C(N)OC2=C(C(=O)CC(C)(C)C2)C1c1ccc(CC)s1 (centres undefined) ?
Response: inactive
